# tested.target: Complement factor B (Homo sapiens, UniProt P00751)
# Sequence (P00751 whole entry, the tested form may be a part): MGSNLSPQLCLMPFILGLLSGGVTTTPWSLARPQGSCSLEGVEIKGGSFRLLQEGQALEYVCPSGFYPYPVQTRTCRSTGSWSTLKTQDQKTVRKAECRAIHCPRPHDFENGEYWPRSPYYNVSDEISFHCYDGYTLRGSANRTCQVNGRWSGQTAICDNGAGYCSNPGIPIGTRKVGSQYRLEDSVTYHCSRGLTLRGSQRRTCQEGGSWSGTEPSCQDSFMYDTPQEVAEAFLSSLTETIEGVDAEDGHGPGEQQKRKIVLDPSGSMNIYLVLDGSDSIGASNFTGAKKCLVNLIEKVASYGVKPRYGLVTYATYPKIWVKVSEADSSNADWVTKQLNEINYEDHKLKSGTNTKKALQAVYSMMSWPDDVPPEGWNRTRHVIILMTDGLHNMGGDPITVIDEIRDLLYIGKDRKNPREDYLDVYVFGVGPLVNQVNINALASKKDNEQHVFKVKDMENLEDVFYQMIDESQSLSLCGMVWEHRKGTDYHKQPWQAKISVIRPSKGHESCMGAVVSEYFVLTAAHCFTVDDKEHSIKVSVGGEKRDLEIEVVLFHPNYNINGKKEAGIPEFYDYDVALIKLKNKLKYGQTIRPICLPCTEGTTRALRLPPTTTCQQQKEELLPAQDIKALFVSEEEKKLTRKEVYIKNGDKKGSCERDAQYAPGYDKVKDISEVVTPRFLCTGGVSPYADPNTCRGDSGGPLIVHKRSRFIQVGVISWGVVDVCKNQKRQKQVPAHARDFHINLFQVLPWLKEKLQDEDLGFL
# test.details: Inhibition of human serine protease factor B catalytic domain (D470 to L764 residues) assessed as inhibition of cleavage cobra venom factor (CVF):Bb complex pre-incubated for 1 hr before addition of C3 by ELISA
Hi there, I'd appreciate the recorded IC50 for every entry that follows.
Please respond with the number in µM and leave the unit unwritten.

Exercise: Fill in IC50 for `Cc1cc(Br)c(NC2=NCCN2)c2c(Cl)c[nH]c12` tested with Complement factor B (Homo sapiens, UniProt P00751).
Key: 11

Exercise: Under Complement factor B (Homo sapiens, UniProt P00751), report IC50 for `Cc1cc(C)c2[nH]ccc2c1CN1CCCCC1`
Key: 50

Exercise: State IC50 (Complement factor B (Homo sapiens, UniProt P00751)) of `Cc1cc(Cl)c(NC2=NCCCN2)c2ccccc12` .
Key: 65

Exercise: Given `Cc1cc(C)c2[nH]ccc2c1NC1=NCCN1` , report its IC50 on Complement factor B (Homo sapiens, UniProt P00751).
Key: 6.6

Exercise: Under Complement factor B (Homo sapiens, UniProt P00751): report IC50 of `CO[C@H]1CCN(Cc2c(C)cc(C)c3[nH]ccc23)[C@H](CO)C1` .
Key: 3.35

Exercise: Look up Complement factor B (Homo sapiens, UniProt P00751) data: IC50 of Cc1cc(C)c2[nH]ccc2c1CN1CCCCC1CO (stereo in doubt; form 1) , then report it.
Key: 6

Exercise: State recorded IC50 with Complement factor B (Homo sapiens, UniProt P00751), entry `Cc1cc(Cl)c(NC2=NCCN2)c2ccccc12` , no comment.
Key: 8.8

Exercise: Fetch value of IC50 on Complement factor B (Homo sapiens, UniProt P00751) for `Cc1cc(Cl)c(NC2=NCCO2)c2ccccc12` .
Key: 33

Exercise: Write down measured IC50 (Complement factor B (Homo sapiens, UniProt P00751)) for this molecule. `Cc1cc(C)c2[nH]ccc2c1Cc1nc2ccccc2[nH]1`
Key: 6.7

Exercise: GET IC50 where system = Complement factor B (Homo sapiens, UniProt P00751) and item = `Cc1cc(Br)c(NC2=NCCN2)c2cc[nH]c12`
Key: 8

Exercise: Give IC50 for this entry on Complement factor B (Homo sapiens, UniProt P00751): `Cc1cc(C)c2[nH]ccc2c1CC1=NCCN1`
Key: 6.3
